Reported values of normalised cell viability for individual entries
# Test system: NCI-H1944
# method description: normalised cell viability (NPI; 0 = phenylarsine oxide control, 1 = DMSO control) (fraction of DMSO control); higher = more viable cells (less compound toxicity)
# condition parameters: glucocorticoid arm: hydrocortisone 2.75 uM co-treatment; compound 1 µM; 6 days
Where a name gives a salt, the structure may show the parent alone. Whole data set: some 1,900 compounds, median “normalised cell viability (NPI; 0 = phenylarsine oxide control, 1 = DMSO control)” near 1, cut for the lowest 2% near 0.039. Shown is part of a subset that was picked to be rich in the lowest values.

[
  {
    "compound": "C=CCN(C1=NCCN1)c1c(Cl)cccc1Cl [Alinidine]",
    "system tested": "NCI-H1944",
    "normalised cell viability": 0.999
  },
  {
    "compound": "NC1CCc2cc(O)c(O)cc2C1 (stereo not given) [6,7-ADTN hydrobromide]",
    "system tested": "NCI-H1944",
    "normalised cell viability": 1
  },
  {
    "compound": "C[C@H](N)CN1CCc2ccc(Br)cc21 [VER-3323 hemifumarate salt]",
    "system tested": "NCI-H1944",
    "normalised cell viability": 1
  },
  {
    "compound": "CCS(=O)(=O)Nc1cccc(C(=C2CCCCC2)c2cnc[nH]2)c1",
    "system tested": "NCI-H1944",
    "normalised cell viability": 1.01
  },
  {
    "compound": "C[Se]C[C@H](N)C(=O)O [Se-(methyl)selenocysteine hydrochloride]",
    "system tested": "NCI-H1944",
    "normalised cell viability": 1.01
  }
]

* * *

# Tested on: NCI-H1944;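 note: CTB read-out in 384-well plates, triplicate wells, NPI normalised per plate against 1 µM phenylarsine oxide (0) and 0.1% DMSO (1) controls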
# method description: normalised cell viability (NPI; 0 = phenylarsine oxide control, 1 = DMSO control) (fraction of DMSO control); NCI-H1944 is a non-small cell lung cancer line; higher = more viable cells (less compound toxicity)
# condition parameters: glucocorticoid arm: hydrocortisone 2.75 uM co-treatment; compound 1 µM; 6 days
Counter-ions that a name gives are not always drawn. Whole data set: some 1,900 compounds, median “normalised cell viability (NPI; 0 = phenylarsine oxide control, 1 = DMSO control)” near 1, cut for the lowest 2% near 0.039. The entries come from a sample that favours the lowest values as a whole.
Reported values of normalised cell viability for individual entries
observation type: normalised cell viability

[
  {
    "molecule": "CS(=N)(=O)CC[C@H](N)C(=O)O (some centres undefined)",
    "result number": 1
  },
  {
    "molecule": "Cc1o[nH]c(=O)c1CC(N)C(=O)O (racemic) [(±)-AMPA hydrobromide]",
    "result number": 0.995
  },
  {
    "molecule": "CCN(CC)C(=O)N[C@H]1C[C@@H]2c3cccc4[nH]cc(c34)C[C@H]2N(C)C1 [S(+)-Terguride]",
    "result number": 0.989
  },
  {
    "molecule": "CCN(CCCl)CCOC(C)=O [Acetylethylcholine mustard hydrochloride]",
    "result number": 1.01
  },
  {
    "molecule": "C[C@@H]1O[C@H](C[N+](C)(C)C)C[C@H]1O (racemic) [(±)-Muscarine chloride]",
    "result number": 1.02
  },
  {
    "molecule": "CCc1c(C(=O)OC)ncc2[nH]c3cc(OC)c(OC)cc3c12 [Methyl 6,7-dimethoxy-4-ethyl-beta-carboline-3-carboxylate]",
    "result number": 1.01
  },
  {
    "molecule": "CC(N)c1cccc(Cl)c1Cl (racemic) [(±)-2,3-Dichloro-alpha-methylbenzylamine hydrochloride]",
    "result number": 1.01
  },
  {
    "molecule": "C[C@@H](N)Cc1cnc[nH]1 [Histamine, R(-)-alpha-methyl-, dihydrochloride]",
    "result number": 0.997
  },
  {
    "molecule": "C=CCN1CC[C@]23CCCC[C@H]2[C@H]1Cc1ccc(O)cc13 [Levallorphan tartrate]",
    "result number": 1
  },
  {
    "molecule": "N[C@H](C(=O)O)c1cc(O)no1 (racemic) [(±)-Ibotenic acid]",
    "result number": 1
  },
  {
    "molecule": "CCC(=O)CCCCC[C@@H]1NC(=O)[C@H]2CCCCN2C(=O)[C@H]([C@@H](C)CC)NC(=O)[C@H](Cc2cn(OC)c3ccccc23)NC1=O",
    "result number": 0.387
  },
  {
    "molecule": "C[C@@]12N[C@@H](Cc3ccccc31)c1ccccc12 [(-)-MK-801 hydrogen maleate]",
    "result number": 1.01
  },
  {
    "molecule": "Cc1c(C(=O)c2cccc3ccccc23)c2cccc3c2n1[C@H](CN1CCOCC1)CO3 [( R)-(+)-WIN 55,212-2 mesylate]",
    "result number": 1
  },
  {
    "molecule": "C[C@@]12N[C@@H](Cc3ccccc31)c1ccccc12 [(-)-MK 801 Maleate]",
    "result number": 1.02
  },
  {
    "molecule": "CN1CC[C@@]2(C)c3cc(O)ccc3N(C)C12 (single isomer, unassigned; (-)) [(-)-Eseroline fumarate]",
    "result number": 0.997
  },
  {
    "molecule": "CC(N)C(O)c1ccc(O)c(O)c1 (single isomer, unassigned; (-)) [(-)-alpha-Methylnorepinephrine]",
    "result number": 1.01
  },
  {
    "molecule": "CCCN(CCC)[C@@H]1CCc2c(F)ccc(O)c2C1 [R(+)-UH-301 hydrochloride]",
    "result number": 1.01
  },
  {
    "molecule": "CCC1(c2ccc(N)cc2)CCC(=O)NC1=O (racemic) [(±)-p-Aminoglutethimide]",
    "result number": 0.997
  },
  {
    "molecule": "C[C@H]1OC[C@@H](C[N+](C)(C)C)O1 [(+)-cis-Dioxolane]",
    "result number": 1.02
  },
  {
    "molecule": "CCCN1CCC[C@@H]2Cc3n[nH]cc3C[C@H]21 (racemic) [(±)-Quinpirole dihydrochloride]",
    "result number": 1.01
  },
  {
    "molecule": "CNc1ccc2oc(C[C@H]3O[C@@]4(CC[C@H]3C)O[C@H]([C@H](C)C(=O)c3ccc[nH]3)[C@H](C)C[C@H]4C)nc2c1C(=O)O",
    "result number": 0.909
  },
  {
    "molecule": "Cc1c(N)nc([C@H](CC(N)=O)NC[C@H](N)C(N)=O)nc1C(=O)N[C@H](C(=O)N[C@H](C)[C@@H](O)[C@H](C)C(=O)N[C@H](C(=O)NCCc1nc(-c2nc(C(=O)NCCC[S+](C)C)cs2)cs1)[C@@H](C)O)[C@@H](OC1OC(CO)C(O)C(O)C1OC1OC(CO)C(O)C(OC(N)=O)C1O)c1cnc[nH]1 (some centres undefined) [Bleomycin sulfate]",
    "result number": 0.669
  },
  {
    "molecule": "CC12CCC3C(CCC4=C(O)C(=O)CCC43C)C1CCC2=O (centres undefined)",
    "result number": 0.998
  },
  {
    "molecule": "O=C(N[C@H]1CN2CCC1CC2)c1ccc(Cl)cc1",
    "result number": 1.02
  },
  {
    "molecule": "C[C@H]1CNCCc2ccc(Cl)cc21 [Lorcaserin HCl]",
    "result number": 1
  },
  {
    "molecule": "CCCn1c(C)c(C(=O)c2cccc3ccccc23)c2ccccc21",
    "result number": 1
  },
  {
    "molecule": "COc1ccc2c(c1)[C@@]13CCCC[C@H]1[C@@H](C2)NCC3 [3-Methoxymorphinan hydrochloride]",
    "result number": 1.01
  },
  {
    "molecule": "O=[N+]([O-])c1ccc(O[C@@H]2O[C@H](CO)[C@@H](O)[C@H](O)[C@H]2F)c([N+](=O)[O-])c1 [2,4-Dinitrophenyl 2-fluoro-2-deoxy-beta-D-glucopyranoside]",
    "result number": 0.992
  },
  {
    "molecule": "CCCN1CC[C@@H]2c3cc(O)ccc3CC[C@@H]21 (racemic) [cis(+/-)-8-OH-PBZI hydrobromide]",
    "result number": 0.993
  }
]
